These measurements were taken from patent US20220324913A1.

Tested on: maternal autoantibodies (plasma from mothers of ASD and TD children)
Assay: NSE 15-mer peptide microarray epitope mapping probed with maternal plasma
Assay type: binding, human
Settings: ELISA negative samples; mothers of TD children, N = 11; positive if FI >200
Some substances, each annotated with its measured TD + N = 11 (number of positive samples).

{"Substance": "296 (VVSIEDPFDQDDWAA; listed as Homo sapiens) [compound 296]", "TD + N = 11 (number of positive samples)": 2}
{"Substance": "297 (VSIEDPFDQDDWAAW; listed as Homo sapiens) [compound 297]", "TD + N = 11 (number of positive samples)": 2}
{"Substance": "295 (PVVSIEDPFDQDDWA; listed as Homo sapiens) [compound 295]", "TD + N = 11 (number of positive samples)": 3}
{"Substance": "293 (DYPVVSIEDPFDQDD; listed as Homo sapiens) [compound 293]", "TD + N = 11 (number of positive samples)": 7}
{"Substance": "294 (YPVVSIEDPFDQDDW; listed as Homo sapiens) [compound 294]", "TD + N = 11 (number of positive samples)": 7}
{"Substance": "292 (RDYPVVSIEDPFDQD; listed as Homo sapiens) [compound 292]", "TD + N = 11 (number of positive samples)": 2}
{"Substance": "288 (QDFVRDYPVVSIEDP; listed as Homo sapiens) [compound 288]", "TD + N = 11 (number of positive samples)": 0}
{"Substance": "291 (VRDYPVVSIEDPFDQ; listed as Homo sapiens) [compound 291]", "TD + N = 11 (number of positive samples)": 4}
{"Substance": "290 (FVRDYPVVSIEDPFD; listed as Homo sapiens) [compound 290]", "TD + N = 11 (number of positive samples)": 1}
